Molecular target: Glycogen synthase kinase-3 alpha (Homo sapiens)
Experiment: concentration-response blocking of human GSK3A – biochemical, luminescence, cell-free homogeneous, retest, dose response (AID 463203)
Conditions: GSK-3 alpha enzyme, ADP-Glo luminescence, 60 min
Active and inactive are the calls of the source.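 The calls were made as follows: active = more than half of replicate measurements showing over 20% loss of kinase signal relative to plate controls; inconclusive = some but at most half of replicates over 20% loss; inactive = no replicate over 20% signal loss.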
Reply using exactly one outcome from active, inactive

The examples below pair each entry with its known result.
Given CC1(C)Cc2c(sc3c2C2=NCCN2C=N3)CS1 , state the outcome it received in this test.
inactive

Assay outcome for N#Cc1c(-c2ccc(F)cc2)c2c([nH]c1=O)-c1ccccc1OC2 : what was it?
inactive

Query: recorded result category for CCOc1ccc(Cn2nnc(C(=O)Nc3ccc(OC)cc3OC)c2N)cc1 in this test
inactive

Tell me the assay call for CC1=CC(=C2C(=O)c3ccccc3C2=O)C=C(C)N1Cc1ccco1 please.
inactive

Would you mind telling me which call this test gave COc1ccccc1N1C(=O)C2C(c3ccccc3F)NN(C(=O)c3ccc(C)cc3)C2C1=O (stereo not drawn) ?
inactive

Others:
Hi, sorry to bother you, what did the test record for COc1ccc(C(=O)NCC(=O)N/N=C/C(C)=C/c2ccccc2)cc1OC ?
inactive

Each molecule tested received a call. Report the one for Cc1ccnc(NC(=O)CCC(=O)N(CC(=O)NCc2ccc(F)cc2)CC2CCCO2)c1 (stereo not drawn) .
active
